The reported numbers originate from paper PMC7429283.

Tested On: NTMT1 (Homo sapiens)
Sequence (Q9BV86 1-222): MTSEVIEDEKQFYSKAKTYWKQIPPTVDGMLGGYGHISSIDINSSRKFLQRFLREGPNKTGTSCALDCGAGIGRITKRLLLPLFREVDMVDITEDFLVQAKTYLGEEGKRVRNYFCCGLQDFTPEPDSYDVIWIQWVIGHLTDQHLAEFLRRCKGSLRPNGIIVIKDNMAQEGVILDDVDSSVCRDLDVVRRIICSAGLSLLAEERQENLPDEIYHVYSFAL
Test Name: SAHH-coupled ThioGlo3 fluorescence assay, 1536-well
Assay type: biochemical
Measurement Setup: IC50, Epigenetic Library qHTS, 1 nM to 57 μM
pIC50: −log10 of the molar value.
Measured Endpoint: pIC50

I have this molecule here, [N-]=[N+]=Nc1nc2c(N)ncnc2n1[C@@H]1O[C@H](CO)[C@@H](O)[C@H]1O [8-Azidoadenosine] , and I need its recorded pIC50.
4.61 to 4.77
